self-splicing fitness (ln) values for the sequences below.
assay_text: self-splicing fitness, log relative to wild type (ln ratio); higher = more splicing; Tetrahymena group I intron in knt gene, E. coli kanamycin selection, DiMSum; sequences stand for … in CUCUCU…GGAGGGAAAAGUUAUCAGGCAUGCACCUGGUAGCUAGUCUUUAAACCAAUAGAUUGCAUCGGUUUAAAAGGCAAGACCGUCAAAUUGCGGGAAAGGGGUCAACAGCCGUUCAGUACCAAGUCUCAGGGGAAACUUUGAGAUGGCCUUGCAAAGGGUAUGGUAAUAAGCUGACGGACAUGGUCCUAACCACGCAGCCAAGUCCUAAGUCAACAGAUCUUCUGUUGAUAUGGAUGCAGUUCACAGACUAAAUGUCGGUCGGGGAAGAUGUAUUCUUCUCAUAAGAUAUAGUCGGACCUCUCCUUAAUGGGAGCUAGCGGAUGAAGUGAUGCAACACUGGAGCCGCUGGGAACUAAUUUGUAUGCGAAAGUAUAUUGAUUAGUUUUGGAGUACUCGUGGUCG;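 further: selection with 25 µg/mL kanamycin versus none on LB agar overnight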
setup_conditions: 37 °C
property_name: self-splicing fitness (ln)

# biopolymer_sequence, property_name, reported_measurement
data = [
    ("ACGCAGCAAUAUUACGCGAG", "self-splicing fitness (ln)", -0.987),
    ("ACCAAGCAAUAUUACGGGUA", "self-splicing fitness (ln)", -0.405),
    ("AGGCAGCAAUAUUACGCGAG", "self-splicing fitness (ln)", -1.12),
    ("UGUAAGCAAUAUUACGUCUC", "self-splicing fitness (ln)", -1.56),
    ("GCAAAGCAAUAUUACGGUCU", "self-splicing fitness (ln)", 0.608),
    ("UUAUAGCAAUAUUACGACCA", "self-splicing fitness (ln)", -0.384),
    ("CGUAAGCAAUAUUACGUACU", "self-splicing fitness (ln)", -0.936),
    ("AGAGAGCAAUAUUACGCCUA", "self-splicing fitness (ln)", -1.08),
    ("AUAGAGCAAUAUUACGACUU", "self-splicing fitness (ln)", 0.17),
    ("GGUUAGCAAUAUUACGGAGG", "self-splicing fitness (ln)", -2.78),
    ("AUCCAGCAAUAUUACGUGCA", "self-splicing fitness (ln)", -0.196),
    ("ACAGAGCAAUAUUACGCCUG", "self-splicing fitness (ln)", -1.94),
    ("GGUUAGCAAUAUUACGUGAU", "self-splicing fitness (ln)", -1.14),
    ("CGAUAGCAAUAUUACGAGUA", "self-splicing fitness (ln)", -1.88),
    ("CCUUAGCAAUAUUACGACAA", "self-splicing fitness (ln)", -3.02),
    ("CCCCAGCAAUAUUACGGGUU", "self-splicing fitness (ln)", -1.85),
]

----------
self-splicing fitness (ln) values for the sequences below.
assay_text: self-splicing fitness, log relative to wild type (ln ratio); higher = more splicing; Tetrahymena group I intron in knt gene, E. coli kanamycin selection, DiMSum; sequences stand for … in CUCUCU…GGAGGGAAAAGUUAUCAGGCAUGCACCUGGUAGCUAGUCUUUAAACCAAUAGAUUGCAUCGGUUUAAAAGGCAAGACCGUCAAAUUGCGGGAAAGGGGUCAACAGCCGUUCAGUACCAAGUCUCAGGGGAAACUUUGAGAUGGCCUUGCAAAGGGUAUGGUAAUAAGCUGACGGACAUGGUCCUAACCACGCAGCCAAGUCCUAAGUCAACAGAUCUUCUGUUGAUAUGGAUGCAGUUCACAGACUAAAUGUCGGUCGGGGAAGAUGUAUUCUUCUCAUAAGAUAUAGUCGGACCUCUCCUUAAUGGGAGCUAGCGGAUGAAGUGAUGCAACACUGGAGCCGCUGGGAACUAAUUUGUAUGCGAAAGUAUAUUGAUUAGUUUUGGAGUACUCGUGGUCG
setup_conditions: 37 °C
property_name: self-splicing fitness (ln)

# biopolymer_sequence, property_name, reported_measurement
rows = [
    ("UAACAGCAAUAUUACGCUUU", "self-splicing fitness (ln)", -1.82),
    ("CUAGAGCAAUAUUACGAUUA", "self-splicing fitness (ln)", -2.26),
    ("GACCAGCAAUAUUACGCACA", "self-splicing fitness (ln)", -0.0966),
    ("GAGCAGCAAUAUUACGCAGG", "self-splicing fitness (ln)", -2.55),
    ("UGUCAGCAAUAUUACGCAGA", "self-splicing fitness (ln)", -2.38),
    ("UCGCAGCAAUAUUACGGUAU", "self-splicing fitness (ln)", -1.78),
    ("CCACAGCAAUAUUACGUGUG", "self-splicing fitness (ln)", -2.36),
    ("UUUGAGCAAUAUUACGAAUU", "self-splicing fitness (ln)", -2.01),
    ("CGAGAGCAAUAUUACGCAUA", "self-splicing fitness (ln)", -1.44),
    ("ACGCAGCAAUAUUACGGAGC", "self-splicing fitness (ln)", -2.47),
    ("CGUGAGCAAUAUUACGUCAA", "self-splicing fitness (ln)", -1.35),
    ("CCUUAGCAAUAUUACGAAUU", "self-splicing fitness (ln)", -2.29),
    ("ACCGAGCAAUAUUACGCGGA", "self-splicing fitness (ln)", -0.721),
    ("CCUGAGCAAUAUUACGCACC", "self-splicing fitness (ln)", -1.74),
    ("CUGGAGCAAUAUUACGGUGU", "self-splicing fitness (ln)", -2.02),
    ("GUCCAGCAAUAUUACGGGCA", "self-splicing fitness (ln)", -1.85),
    ("GCCCAGCAAUAUUACGCAAA", "self-splicing fitness (ln)", -1.3),
    ("CACCAGCAAUAUUACGUGGG", "self-splicing fitness (ln)", -3.03),
    ("CACCAGCAAUAUUACGGUGA", "self-splicing fitness (ln)", -3.26),
    ("AGUGAGCAAUAUUACGCCUG", "self-splicing fitness (ln)", -2.38),
    ("GCCUAGCAAUAUUACGUCAA", "self-splicing fitness (ln)", -1.8),
    ("UCCCAGCAAUAUUACGCACA", "self-splicing fitness (ln)", -0.318),
    ("AAAUAGCAAUAUUACGCCCA", "self-splicing fitness (ln)", -0.392),
    ("AGGUAGCAAUAUUACGCGUU", "self-splicing fitness (ln)", -0.903),
    ("UGUGAGCAAUAUUACGCGGG", "self-splicing fitness (ln)", -2.31),
    ("UACUAGCAAUAUUACGAGCG", "self-splicing fitness (ln)", 0.655),
    ("GGUGAGCAAUAUUACGUUAG", "self-splicing fitness (ln)", -2.83),
    ("CAACAGCAAUAUUACGGCUC", "self-splicing fitness (ln)", -0.333),
    ("GAUUAGCAAUAUUACGUCGC", "self-splicing fitness (ln)", -0.838),
    ("CUGAAGCAAUAUUACGUAAA", "self-splicing fitness (ln)", -1.7),
    ("CUAGAGCAAUAUUACGUAAA", "self-splicing fitness (ln)", -1.84),
    ("CUCGAGCAAUAUUACGCUGA", "self-splicing fitness (ln)", -0.491),
    ("CCAAAGCAAUAUUACGACAG", "self-splicing fitness (ln)", -0.249),
    ("GACUAGCAAUAUUACGGGCC", "self-splicing fitness (ln)", -2.46),
    ("UUGCAGCAAUAUUACGUUAG", "self-splicing fitness (ln)", -0.899),
    ("GUAGAGCAAUAUUACGGAGU", "self-splicing fitness (ln)", -1.61),
    ("ACCUAGCAAUAUUACGGUGC", "self-splicing fitness (ln)", -0.926),
    ("CACAAGCAAUAUUACGUGUU", "self-splicing fitness (ln)", -3.28),
    ("CAGGAGCAAUAUUACGGUGC", "self-splicing fitness (ln)", -1.76),
    ("UCCUAGCAAUAUUACGCGGA", "self-splicing fitness (ln)", -2.51),
    ("AUAGAGCAAUAUUACGGCGC", "self-splicing fitness (ln)", -0.282),
    ("ACCCAGCAAUAUUACGCAGC", "self-splicing fitness (ln)", -0.445),
    ("CAGCAGCAAUAUUACGGCAG", "self-splicing fitness (ln)", -0.261),
    ("CGUUAGCAAUAUUACGUAUG", "self-splicing fitness (ln)", -0.357),
    ("CUAAAGCAAUAUUACGCAGG", "self-splicing fitness (ln)", -1.09),
    ("AGGUAGCAAUAUUACGAUUG", "self-splicing fitness (ln)", -2.44),
    ("GACCAGCAAUAUUACGGCGU", "self-splicing fitness (ln)", 0.319),
    ("GUGCAGCAAUAUUACGUACC", "self-splicing fitness (ln)", -2.41),
    ("UUCUAGCAAUAUUACGAAUA", "self-splicing fitness (ln)", -0.478),
    ("CGGUAGCAAUAUUACGAUAG", "self-splicing fitness (ln)", 0.279),
    ("CUGUAGCAAUAUUACGCUGU", "self-splicing fitness (ln)", -2.53),
    ("UCCUAGCAAUAUUACGUAAG", "self-splicing fitness (ln)", -2.4),
    ("UCGCAGCAAUAUUACGGGGU", "self-splicing fitness (ln)", -2.72),
    ("UUACAGCAAUAUUACGCCGU", "self-splicing fitness (ln)", -2.05),
    ("AAGAAGCAAUAUUACGUGCA", "self-splicing fitness (ln)", -0.0733),
    ("CAUCAGCAAUAUUACGGGAC", "self-splicing fitness (ln)", -2.51),
    ("GGGAAGCAAUAUUACGUUUG", "self-splicing fitness (ln)", -1.74),
    ("CAAAAGCAAUAUUACGCGCC", "self-splicing fitness (ln)", -0.789),
    ("UUACAGCAAUAUUACGUACG", "self-splicing fitness (ln)", 0.0876),
    ("CCUAAGCAAUAUUACGUACU", "self-splicing fitness (ln)", -3.01),
    ("UACUAGCAAUAUUACGCAUG", "self-splicing fitness (ln)", -0.591),
    ("GAAAAGCAAUAUUACGCUAG", "self-splicing fitness (ln)", -1.57),
    ("GGUCAGCAAUAUUACGCCCU", "self-splicing fitness (ln)", 0.198),
    ("CAAGAGCAAUAUUACGCUCA", "self-splicing fitness (ln)", -1.08),
    ("UAAAAGCAAUAUUACGGUCA", "self-splicing fitness (ln)", 0.333),
    ("AGACAGCAAUAUUACGUUGC", "self-splicing fitness (ln)", -3.26),
    ("UUGUAGCAAUAUUACGGGAG", "self-splicing fitness (ln)", -2.84),
]
